- Test system: BT-549 breast
- assay-name: NCI-60 one-dose screen, 48 h
- setup-conditions: 10 µM unless noted
Compounds without any hit were thinned out: in the full panel of roughly 83,000, 20% have a hit. The source made the active and inactive calls. How the source made its calls: active means growth percent below 10; inactive means the rest.
Labels: active, inactive

compound=COc1nc2ccccc2cc1/C=C1/C=C(c2ccccc2)NC1=O assigned_label=inactive
compound=CCCCN(CCC#N)C(N)=O assigned_label=inactive
compound=COc1ccc(C(=O)/C=C/c2ccc(C)cc2)cc1S(N)(=O)=O assigned_label=inactive
compound=Cc1nc2c(c(-c3ccccc3)n1)Cc1c(ccc3ccccc13)O2 assigned_label=inactive
compound="Cc1ccc(C2=Nc3c(N)nc(N)nc3NC(c3cccc(Nc4ccnc5cc(C(F)(F)F)ccc45)c3)C2)cc1 (stereo not given)" assigned_label=inactive
compound=O=C1c2cccnc2C(=O)c2c1c(C(=O)OCCCN1CCOCC1)c1ccccn21 assigned_label=active
compound=COc1cc(/C=C2\CN(S(=O)(=O)c3ccc(C)cc3)C/C(=C\c3cc(CN4CCCC4)c(O)c(OC)c3)C2=O)cc(CN2CCCC2)c1O assigned_label=inactive
compound="Nc1ncnc2c1N=C(c1ccc([N+](=O)[O-])cc1)CC(c1ccc3c(c1)OCO3)N2 (stereo not given)" assigned_label=inactive
compound="CCCN1C(=O)N(CCC)C2C1NC(=S)N2/N=C/C=C/c1ccccc1OC (stereo not given)" assigned_label=inactive
compound=COc1ccc(-c2nc(SCCC(C)C)nc(N/N=C(/C)c3ccc(N)cc3)c2C#N)cc1 assigned_label=inactive

----------
- Tested on: SW-620 colon
- assay-name: NCI-60 one-dose screen, 48 h
- setup-conditions: 10 µM unless noted
This is part of a sample that, as a whole, favours compounds with a hit. Of some 83,000 tested, about 20% had one in any assay. The source made the active and inactive calls. The calls were made as follows: active = growth percent below 10; inactive = the rest.
Labels: active, inactive

compound=COC(=O)c1sc(-c2ccc(C)cc2)cc1O assigned_label=inactive
compound=Cn1cc(-c2csc(-c3cn(C)c4ccc(F)cc34)n2)c2cnccc21 assigned_label=active
compound=O=C(O)/C=C/c1cn(-c2ccccc2)nc1-c1ccc(F)cc1 assigned_label=inactive
compound="COc1cccc(C2C3=C(COC3=O)N(CCO)c3cc4c(cc32)OCCO4)c1 (stereo not given)" assigned_label=inactive
compound=O=c1cc(-c2nccc3c2[nH]c2ccccc23)c2cc(Cl)ccc2o1 assigned_label=inactive
compound=CCN(CC)c1ccc(/C=N/NC(=O)c2ccccc2Nc2ccnc(C(F)(F)F)c2)c(O)c1 assigned_label=inactive
compound=COc1ccc(C(=O)/C=C/c2ccc(C)cc2)cc1S(N)(=O)=O assigned_label=inactive
compound=COc1ccc(-c2cn(Cc3ccc4c(Br)cc(Br)c(O)c4n3)nn2)cc1 assigned_label=inactive
compound=O=C(Nc1cccc2c1C(=O)c1cccc(NC(=O)c3ccc(C(=O)Nc4cccc5c4C(=O)c4cccc(NC(=O)c6ccccc6)c4C5=O)cc3)c1C2=O)c1ccccc1 assigned_label=inactive
compound=c1ccc(-c2cn3nc(-c4c[nH]c5ccccc45)sc3n2)cc1 assigned_label=inactive

----------
- Test system: OVCAR-5 ovarian
- assay-name: NCI-60 one-dose screen, 48 h (100 = growth as untreated, 0 = no growth, -100 = all killed)
- setup-conditions: 10 µM unless noted
- Method: Growth inhibition of the OVCAR-5 human tumor cell line is measured as a screen for anti-cancer activity. Cells are grown in 96 well plates and exposed to the test compound for 48 hours. Compounds are tested at a single concentration, which is 10^-5 M for most compounds. The reported endpoint is percent growth (GI% or GIPRCNT), where numbers from 0 - 100% represent growth inhibition, and numbers from -100% - 0 represent cell death. For example, a value of 40 represents 60% growth inhibition. […]
Compounds without any hit were thinned out: in the full panel of roughly 83,000, 20% have a hit.
Label t when growth is strictly below 80%; at or above that, label f.

molecule="O=C1OCC2=C1C(c1cccc(F)c1)c1cc3c(cc1N2CCO)CCC3 (stereo not given)" assigned_label=t
molecule="CCN1C(=O)N(CC)C2C1NN=c1s/c(=C\\c3ccccc3)c(=O)n12 (stereo not given)" assigned_label=t
molecule=O=C(Nc1ncc(Cc2ccccc2)s1)c1ccc2c(c1)OCCO2 assigned_label=t
molecule="CCOC(=O)C1=CCC(n2cc(F)c(=O)[nH]c2=O)O1 (stereo not given)" assigned_label=f
molecule="Nc1ncnc2c1N=C(c1ccc([N+](=O)[O-])cc1)CC(c1ccc3c(c1)OCO3)N2 (stereo not given)" assigned_label=f
molecule=COc1ccc(S(=O)(=O)Oc2ccc(-c3sc4cc(OS(=O)(=O)c5ccc(OC)cc5)ccc4c3C(=O)c3ccc(OCCN4CCCCC4)cc3)cc2)cc1 assigned_label=f
molecule=CN1CCN(CC(=O)N(C)c2ccc(N=C(c3ccccc3)c3c(O)[nH]c4ccc([N+](=O)[O-])cc34)cc2)CC1 assigned_label=f
molecule=CN(C)C(=S)NN=C(c1ccccn1)c1ccccn1 assigned_label=t
molecule=COc1cc(-c2c(-c3ccccc3)c[nH]c2C(=O)NCCCO)c(OC)c2c1OCO2 assigned_label=f
